System: TK-10 renal
PROTOCOL SUMMARY: NCI tumour cell line growth inhibition, 48 h
We begin with a simple list: items and their reported GI50.

>  <COMPOUND>
Cn1ccnc1C(=O)/C=C/c1ccc(C(=O)Nc2ccc(Cl)cc2)cc1

>  <GI50>
0.973 µM

$$$$
>  <COMPOUND>
CC1=C[C@H]2c3c(c(O)c(O)c4oc5c(C)cccc5c(=O)c34)[C@H](c3cc(O)c(O)c4oc5c(C)cccc5c(=O)c34)[C@H]2C(C)(C)C1

>  <GI50>
2.51 µM

$$$$
>  <COMPOUND>
Cn1cc(C2=C(c3cccc4ccccc34)C(=O)NC2=O)c2ccccc21

>  <GI50>
9.14 µM

$$$$

Noted GI50 for C[n+]1c(/C=C\c2ccc(Cl)cc2)ccc2ccccc21 , tested on TK-10 renal: > 100 µM

Noted GI50 for O=[N+]([O-])c1ccc(Br)c([N+](=O)[O-])c1 , tested on TK-10 renal: 2.3 µM

Noted GI50 for CC(=O)N1N=C2/C(=C/c3ccccc3)CC(C)CC2C1c1ccccc1 (centres undefined) , tested on TK-10 renal: 19.7 µM

Noted GI50 for O=C(Nc1ccccc1O)c1cccc(NC2=C(Cl)C(=O)N(Cc3ccccc3)C2=O)c1 , tested on TK-10 renal: 4.69 µM

Noted GI50 for O=c1cc(-c2cccc(C(F)(F)F)c2)[nH]c2cc3c(cc12)OCO3 , tested on TK-10 renal: 22.5 µM

Noted GI50 for O=C1NN(c2ccc(C(=O)O)cc2)C(=O)/C1=C\c1ccc([N+](=O)[O-])o1 , tested on TK-10 renal: 25.5 µM

Noted GI50 for COc1cc2c3c(n(CCCCOC(=O)C(F)(F)F)c(=O)c2cc1OC)-c1cc2c(cc1C3=O)OCO2 , tested on TK-10 renal: > 100 µM

====

System: SR leukemia
PROTOCOL SUMMARY: NCI tumour cell line growth inhibition, 48 h
READOUT: TGI

>  <MOLECULE>
Cc1ccc(/C(O)=C/c2nc3ccccc3oc2=O)cc1

>  <REPORTED RESULT>
> 100 µM

$$$$

Below: the item to evaluate.
Noted TGI for Nc1ccccc1CCCC(=O)O , tested on SR leukemia: > 100 µM

====

We begin with a simple list: items and their reported TGI.
System: RXF 393 renal
PROTOCOL SUMMARY: NCI tumour cell line growth inhibition, 48 h

Looking up Cc1c(Cl)ccc2c1NC(=O)C2(O)C(C(=O)c1ccccc1)c1ccccc1 (stereo unspecified) , I found its TGI recorded as 73.8 µM

Looking up Cc1nc(Cl)nc(Cl)c1C , I found its TGI recorded as > 100 µM

====

System: OVCAR-5 ovarian
PROTOCOL SUMMARY: NCI tumour cell line growth inhibition, 48 h
READOUT: TGI

The cases that follow already have their TGI on record.
>  <COMPOUND>
COc1cc2nc3sc(C(=O)Nc4ccc(C(=O)OC(C)C)cc4)c(C(=O)Nc4ccc(Cl)cc4C)n3c(=O)c2cc1OC

>  <TGI>
50.2 µM

$$$$
>  <COMPOUND>
COc1ccc(CCN2C(=O)C=CC2=O)cc1OC

>  <TGI>
35.6 µM

$$$$
>  <COMPOUND>
N#Cc1c2ccc([N+](=O)[O-])cc2c(=O)n2c1sc1ccc(C(F)(F)F)cc12

>  <TGI>
> 100 µM

$$$$
>  <COMPOUND>
COC(=O)[C@@H]1CN(C(=O)c2ccccc2)C(=O)N1

>  <TGI>
> 100 µM

$$$$

Looking up CN(C)c1ccc(/C=C2/SC(=S)NC2=O)cc1 , I found its TGI recorded as 72.6 µM

Looking up C/C=C(\C)C(=O)N[C@H]1CC[C@]2(C)C3CC[C@@]4(C)C(CC[C@@H]4C(C)N(C)C)C3CCC2[C@H]1OC(C)=O (stereo not given in full) , I found its TGI recorded as 5.65 µM
